biological target: Human immunodeficiency virus type 1 reverse transcriptase (Human immunodeficiency virus 1) (UniProt Q72547)
rule met if ID50 is below 20 µM. rule not met if not; exact matches included in rule not met.

Q: Please check: ID50 for `Cc1c(O)nc(Sc2ccc(F)cc2F)nc1Cc1c(Cl)cccc1Cl` , strictly under 20 µM or not?
Ans: rule met

Q: Please check: ID50 for `Cc1c(O)nc(Sc2ccccc2)nc1Cc1c(Cl)cccc1Cl` , strictly under 20 µM or not?
Ans: rule not met

Q: Please check: ID50 for `Cc1c(O)nc(Sc2ccccc2)nc1Cc1c(F)cccc1F` , strictly under 20 µM or not?
Ans: rule not met

Q: Please check: ID50 for `Cc1c(O)nc(Sc2ccc(F)cc2F)nc1Cc1c(F)cccc1F` , strictly under 20 µM or not?
Ans: rule not met

Q: Please check: ID50 for `COc1ccc(Sc2nc(O)c(C)c(Cc3c(Cl)cccc3Cl)n2)cn1` , strictly under 20 µM or not?
Ans: rule met

Q: Please check: ID50 for `Cc1c(O)nc(Sc2ccc(Cl)cc2)nc1Cc1c(F)cccc1F` , strictly under 20 µM or not?
Ans: rule not met

Q: Please check: ID50 for `Cc1c(O)nc(Sc2ccc(C#N)cc2)nc1Cc1c(Cl)cccc1Cl` , strictly under 20 µM or not?
Ans: rule not met
